# System: Human immunodeficiency virus 1
# ASSAY COMMENT: Antiviral activity against ENV pseudotyped CCR5-tropic HIV1 p9021_14.B2.4571
# Format: functional
# ASSAY CONTEXT: Human immunodeficiency virus 1, p9021_14.B2.4571
What pIC50 was measured for each of the following?
Answers are plain numbers, as −log10 of the molar value.

NCC(NC(=O)c1ccc(-c2cc(F)c(Cl)c(F)c2)[nH]1)c1ncc(CO)s1 (stereo in doubt) = 6.51

Now for a further compound.
**Q:** What does the data say about its pIC50? Entry: Cc1ccc(-c2ccc(C(=O)NC(CN)c3ncc(CO)s3)[nH]2)cc1F (stereo in doubt)
**A:** 6.66
